Target: T1, hRET.mmh (human, UniProt P07949 29-635, biotinylated in the ELISA of Example 4 (biot-hRET.mmh); not in the SPR of Example 3)
T1 construct: also called biot-hRET.mmh; soluble monomeric human RET
Assay: SPR Biacore T200, mAb capture, 37 C
REPORTED_METRIC: t½ (min)
Kindly provide the numeric value in min only, without the unit symbol.

| BINDER | t½, min |
| --- | --- |
| H4H8083P (antibody, human IgG4, V domains shown, human IgG4 Fc (H4H prefix)) VH: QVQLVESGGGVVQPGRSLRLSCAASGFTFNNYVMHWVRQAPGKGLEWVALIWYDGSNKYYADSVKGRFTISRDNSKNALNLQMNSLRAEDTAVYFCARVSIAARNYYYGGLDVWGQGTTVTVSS VL: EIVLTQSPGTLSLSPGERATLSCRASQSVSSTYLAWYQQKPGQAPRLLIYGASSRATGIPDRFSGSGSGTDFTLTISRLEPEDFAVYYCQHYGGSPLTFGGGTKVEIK | 5 |
| H4H8060P (antibody, human IgG4, V domains shown, human IgG4 Fc (H4H prefix)) VH: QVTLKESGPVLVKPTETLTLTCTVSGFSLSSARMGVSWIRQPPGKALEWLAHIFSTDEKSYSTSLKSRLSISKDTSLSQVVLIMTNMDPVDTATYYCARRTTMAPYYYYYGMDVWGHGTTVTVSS VL: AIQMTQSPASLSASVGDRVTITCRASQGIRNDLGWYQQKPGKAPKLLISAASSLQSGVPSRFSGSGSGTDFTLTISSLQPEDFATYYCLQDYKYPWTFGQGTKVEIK | 7 |
| H4H8066P (antibody, human IgG4, V domains shown, human IgG4 Fc (H4H prefix)) VH: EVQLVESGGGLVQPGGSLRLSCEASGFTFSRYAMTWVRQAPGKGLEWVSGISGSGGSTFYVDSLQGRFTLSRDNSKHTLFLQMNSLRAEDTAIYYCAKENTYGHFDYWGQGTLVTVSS VL: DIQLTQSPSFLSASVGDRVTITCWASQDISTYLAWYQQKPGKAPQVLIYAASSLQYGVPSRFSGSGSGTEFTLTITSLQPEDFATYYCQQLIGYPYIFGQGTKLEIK | 11 |
| H4H8067P (antibody, human IgG4, V domains shown, human IgG4 Fc (H4H prefix)) VH: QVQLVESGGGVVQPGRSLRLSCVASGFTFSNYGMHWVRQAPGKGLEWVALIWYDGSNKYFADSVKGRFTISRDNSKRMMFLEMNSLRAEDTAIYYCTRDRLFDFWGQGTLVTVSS VL: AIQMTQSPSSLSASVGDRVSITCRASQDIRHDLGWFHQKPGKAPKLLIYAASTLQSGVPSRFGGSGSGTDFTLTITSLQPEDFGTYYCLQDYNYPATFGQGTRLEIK | 10 |

For the binder H4H8071P (antibody, human IgG4, V domains shown, human IgG4 Fc (H4H prefix)) VH: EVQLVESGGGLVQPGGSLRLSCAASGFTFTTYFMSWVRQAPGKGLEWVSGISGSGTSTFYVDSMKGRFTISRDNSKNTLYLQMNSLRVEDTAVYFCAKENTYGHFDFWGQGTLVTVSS VL: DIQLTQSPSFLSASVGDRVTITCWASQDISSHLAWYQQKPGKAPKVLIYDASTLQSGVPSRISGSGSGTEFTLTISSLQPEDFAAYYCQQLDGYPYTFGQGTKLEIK , give its measured t½ value. 13

Dear colleague, please send me the reported t½ for H4H8084P (antibody, human IgG4, V domains shown, human IgG4 Fc (H4H prefix)) VH: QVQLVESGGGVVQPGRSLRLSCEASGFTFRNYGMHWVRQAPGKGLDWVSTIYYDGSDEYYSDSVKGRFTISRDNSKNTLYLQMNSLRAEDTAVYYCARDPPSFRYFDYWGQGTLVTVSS VL: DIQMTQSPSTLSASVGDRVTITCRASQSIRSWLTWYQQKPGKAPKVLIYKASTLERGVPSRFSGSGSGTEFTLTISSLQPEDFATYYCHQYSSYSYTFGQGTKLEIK when you can. 7

Report measured t½; entry is H4H8046P (antibody, human IgG4, V domains shown, human IgG4 Fc (H4H prefix)) VH: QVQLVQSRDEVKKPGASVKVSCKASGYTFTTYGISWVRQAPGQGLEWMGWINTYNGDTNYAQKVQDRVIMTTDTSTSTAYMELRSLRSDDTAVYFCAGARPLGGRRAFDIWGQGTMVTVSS VL: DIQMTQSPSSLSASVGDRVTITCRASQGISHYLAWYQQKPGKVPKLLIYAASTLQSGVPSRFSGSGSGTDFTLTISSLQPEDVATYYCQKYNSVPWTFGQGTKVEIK 9

Supply recorded t½ for H4H8056P (antibody, human IgG4, V domains shown, human IgG4 Fc (H4H prefix)) VH: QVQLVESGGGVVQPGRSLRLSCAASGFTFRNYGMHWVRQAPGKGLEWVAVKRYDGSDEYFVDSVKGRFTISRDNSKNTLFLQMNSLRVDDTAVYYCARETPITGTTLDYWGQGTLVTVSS VL: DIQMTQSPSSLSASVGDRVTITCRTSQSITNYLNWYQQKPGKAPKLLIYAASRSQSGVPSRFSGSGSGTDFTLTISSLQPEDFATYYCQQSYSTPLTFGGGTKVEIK here. 4

Assign t½ to the following record: H4H8087P (antibody, human IgG4, V domains shown, human IgG4 Fc (H4H prefix)) VH: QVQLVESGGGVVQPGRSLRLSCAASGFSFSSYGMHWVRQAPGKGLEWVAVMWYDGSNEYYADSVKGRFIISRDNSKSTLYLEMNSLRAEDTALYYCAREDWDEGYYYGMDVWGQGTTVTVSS VL: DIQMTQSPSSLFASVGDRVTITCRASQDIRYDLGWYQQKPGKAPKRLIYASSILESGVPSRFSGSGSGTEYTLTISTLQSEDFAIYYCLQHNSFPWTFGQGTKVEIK 9

Identify the reported t½ for the following entry. H4H8076P (antibody, human IgG4, V domains shown, human IgG4 Fc (H4H prefix)) VH: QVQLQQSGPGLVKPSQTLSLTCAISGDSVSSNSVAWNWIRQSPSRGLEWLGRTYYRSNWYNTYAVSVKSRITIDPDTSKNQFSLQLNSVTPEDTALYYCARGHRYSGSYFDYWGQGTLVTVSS VL: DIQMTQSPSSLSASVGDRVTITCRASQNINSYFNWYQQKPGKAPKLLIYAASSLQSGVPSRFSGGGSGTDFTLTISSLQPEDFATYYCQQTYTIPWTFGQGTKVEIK 9
